- protocol-details: viability loss with induced miR-34 in A549 – imaging, A549 dox-inducible miR-34, nuclei and caspase counts, primary screen (AID 1347080)
- study-conditions: A549 miR-34 inducible, Hoechst nuclei count, 48 h; measured here: relative caspase fold change +Dox/-Dox

molecule	fold change
OCCn1cc(-c2cnc3nnn(Cc4ccc5ncccc5c4)c3n2)cn1	1.2
COc1nc(C)cnc1NS(=O)(=O)c1cccnc1-c1ccc(-c2nnco2)cc1	0.943
CCOC(=O)c1c(CSc2ccccc2)n(C)c2cc(Br)c(O)c(CN(C)C)c12	0.958
N[C@@H]1CCN(O)C1=O	0.836
O=C(O)CCC/C=C\C[C@H]1C(=O)C[C@@H](O)[C@@H]1/C=C/[C@@H](O)Cc1ccccc1	1.05
CCCCN1CCC(CCC(=O)c2cc(Cl)c(N)cc2OC)CC1	1.12
O=C(OC[C@@H]1O[C@H]1c1ccccc1)Oc1ccc([N+](=O)[O-])cc1	0.428
COC(=O)[C@H]1C2C[C@H]3c4[nH]c5ccccc5c4CCN3C[C@H]2CC[C@@H]1O (stereo not given in full)	0.826
CC1(C)CCC(CN2CCN(c3ccc(C(=O)NS(=O)(=O)c4ccc(NCC5CCOCC5)c([N+](=O)[O-])c4)c(Oc4cnc5[nH]ccc5c4)c3)CC2)=C(c2ccc(Cl)cc2)C1	0.349
O=C(c1ccc(F)cc1)C1CCN(CCCCc2ccccc2)CC1	1.29

====

- protocol-details: drug combination growth inhibition, ovarian cancer – cell-based, oncology-focused library, rucaparib conditional, profiling panel (AID 1508598)
- study-conditions: patient-derived ovarian cancer cells, CellTiter-Glo viability, 144 h; at 0.313 µM; OCI-C5x cells; without rucaparib; stronger effect = lower value
parameter: viability (%)

O=C(NOC[C@H](O)CO)c1ccc(F)c(F)c1Nc1ccc(I)cc1F 86.8
Cn1c(=O)c(F)c(Nc2ccc(I)cc2F)c2c(=O)n(C[C@@H](O)CO)cnc21 88.4
Cc1cc2c(F)c(Oc3ncnn4cc(OC[C@@H](C)O)c(C)c34)ccc2[nH]1 129
COc1ccc(-c2ccc3c(N4CCOCC4)nc(N4C[C@@H](C)O[C@@H](C)C4)nc3n2)cc1CO 127
CN1CCN(c2nc(C3=C(c4c[nH]c5ccccc45)C(=O)NC3=O)c3ccccc3n2)CC1 129
CN1CCN(c2ccc3nc(-c4c(N)c5c(F)cccc5[nH]c4=O)[nH]c3c2)CC1 119
CC(=O)Nc1cccc(-n2c(=O)n(C3CC3)c(=O)c3c(Nc4ccc(I)cc4F)n(C)c(=O)c(C)c32)c1 82.7
Cc1cc(Nc2cc(N3CCN(C)CC3)nc(/C=C/c3ccccc3)n2)n[nH]1 112
COc1ccc(-c2ccc3c(N4CCOC[C@@H]4C)nc(N4CCOC[C@@H]4C)nc3n2)cc1CO 48.1

====

- protocol-details: viability loss in pontine glioma line – cell-based, JHH-DIPG-1, MIPE4.0, CellTiter-Glo, qHTS, dose response (AID 1347062);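 on AC50: cells exposed to compound for two days before readout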
- study-conditions: JHH-DIPG-1 viability, CellTiter-Glo ATP luminescence
Records with an inconclusive call do not appear. Calls of active or inactive are those of the source. The limit is not given here; nearly all actives have AC50 up to about 27 µM.
Classes used: t = active, f = inactive

compound	qualitative-label
COc1cc2c(cc1OC)CN(CCc1ccc(NC(=O)c3cc(OC)c(OC)cc3NC(=O)c3cnc4ccccc4c3)cc1)CC2	f
c1cc(N[C@@H]2CCNC2)nc(-c2cnc3ccc(-c4cn[nH]c4)cn23)c1	t
CCNC(=O)Nc1ccc(Oc2ncnc(N)c2/C=N/OC)cc1Cl	f
CC(C)C[C@H](NC(=O)[C@@H](NC(=O)c1cccc(-c2ccccc2)n1)[C@@H](C)O)B(O)O	t
O=C1CCCC2=C1C(c1[nH]ncc1Cl)N=C(Nc1nc3ccccc3o1)N2 (stereo not drawn)	f
CC(C)(C)c1nc(-c2cccc(NS(=O)(=O)c3c(F)cccc3F)c2F)c(-c2ccnc(N)n2)s1	f
C=C1/C(=C/C=C2\CCCC3(C)[C@@H]([C@H](C)/C=C/C=C/C(O)(CC)CC)CC[C@@H]23)C[C@@H](O)C[C@@H]1O (stereo partly drawn)	t
COc1cc(C(=O)NC2CCN(C)CC2)ccc1Nc1ncc2c(n1)N(C1CCCC1)CCC(=O)N2C(C)C	t
O=C(CCCCCCC(=O)Nc1cccnc1)NO	t
CC(C)(C)C(=O)Oc1ccc2c(c1)nc(NC(=O)c1cccc([N+](=O)[O-])c1)n2CCCO	f
CCCCCCCc1ccc(CCc2cccc(O)c2C(=O)O)cc1	f
O=C1CCC[C@@H]2[C@H]3CCC[N+]4([O-])CCC[C@@H](CN12)[C@@H]34 (stereo partly drawn)	f
O=C(/C=C/c1ccc(/C=C/C(=O)Nc2ccc(C3=NCCN3)cc2)cc1)Nc1ccc(C2=NCCN2)cc1	f
O=C(C=CC#Cc1cccc(NS(=O)(=O)c2ccccc2)c1)NO	t
CC(=O)Nc1sc2c(c1-c1nc3ccccc3s1)CNC2	t
O=C(O)[C@H](Cc1c[nH]c2ccccc12)N1C(=O)c2ccccc2C1=O	f
C[C@@H]1CC[C@@]2(OC1)OC1CC3C4CC=C5CC(O)CCC5(C)C4CCC3(C)C1[C@@H]2C (stereo partly drawn)	f
CC(C)(O)[C@H]1CC[C@@](C)([C@H]2[C@@H](O)C[C@@]3(C)[C@@H]4C[C@H](O[C@@H]5O[C@H](CO)[C@@H](O)[C@H](O)[C@H]5O)[C@H]5C(C)(C)[C@@H](O[C@@H]6OC[C@@H](O)[C@H](O)[C@H]6O)CC[C@@]56C[C@@]46CC[C@]23C)O1	f

====

- protocol-details: drug combination growth inhibition, ovarian cancer – cell-based, oncology-focused library, rucaparib conditional, profiling panel (AID 1508598)
- study-conditions: patient-derived ovarian cancer cells, CellTiter-Glo viability, 144 h; at 0.313 µM; OCI-P5x cells; without rucaparib
Active and inactive are the calls of the source.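 The calls were made as follows: active = normalized viability below 100% at a tested concentration; inactive = the rest.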
Classes used: active, inactive

compound	qualitative-label
COC(=O)Nc1ccc(-c2nc(N3CCOCC3)c3cnn(C4CCN(C(=O)OC)CC4)c3n2)cc1	inactive
C#CC[C@H](c1nc2cc(Cl)ccc2c(=O)n1Nc1ccccc1)N(CCCN)C(=O)c1cccc(Cl)c1F	active
N#CCNC(=O)c1ccc(-c2ccnc(Nc3ccc(N4CCOCC4)cc3)n2)cc1	active
CNC(=O)c1cc(COc2nnc(Nc3ccc(Cl)cc3)c3ccoc23)ccn1	inactive
O=C(CCCCCCC(=O)Nc1ccc([C@H]2O[C@@H](CSc3nc(-c4ccccc4)c(-c4ccccc4)o3)C[C@@H](c3ccc(CO)cc3)O2)cc1)NO	inactive
COc1cc2nccc(Oc3ccc(NC(=O)C4(C(=O)Nc5ccc(F)cc5)CC4)cc3)c2cc1OC	active
O=C(NOC[C@H](O)CO)c1ccc(F)c(F)c1Nc1ccc(I)cc1F	active
CC(C)n1nc(-c2ccc3oc(N)nc3c2)c2c(N)ncnc21	active
CN(C)N=Nc1nc[nH]c1C(N)=O	inactive
Nc1cc(C(F)(F)F)c(-c2cc(N3CCOCC3)nc(N3CCOCC3)n2)cn1	active
O=C(Nc1ccccc1-c1cn2c(CN3CCNCC3)csc2n1)c1cnc2ccccc2n1	inactive
Nc1nc(Nc2ccc(S(N)(=O)=O)cc2)nn1C(=O)c1c(F)cccc1F	active
COc1ccc(C2=NC(c3ccc(Cl)cc3)C(c3ccc(Cl)cc3)N2C(=O)N2CCNC(=O)C2)c(OC(C)C)c1 (centres undefined)	active
COCCn1c2c([n+](Cc3cnccn3)c1C)C(=O)c1ccccc1C2=O	active
Cc1ccc([C@@H]2O[C@H](CO)[C@@H](O)[C@H](O)[C@H]2O)cc1Cc1ccc(-c2ccc(F)cc2)s1	inactive
Cc1cc(Nc2cc(N3CCN(C)CC3)nc(/C=C/c3ccccc3)n2)n[nH]1	active
CNc1nc(-c2ccc3c(N)n[nH]c3c2)cc(N2C[C@@H](C(=O)NC3CCCCC3)CC[C@H]2C)n1	active
CN1CCC(CNc2ccc3ncc(-c4cccc(OC(F)(F)F)c4)n3n2)CC1	active
O=C(/C=C/c1cccc(S(=O)(=O)Nc2ccccc2)c1)NO	active

====

- protocol-details: viability loss in pontine glioma line – cell-based, SU-DIPG-XVII, MIPE5.0, CellTiter-Glo, qHTS, dose response (AID 1347060);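 on AC50: cells exposed to compound for 48 hours before viability readout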
- study-conditions: CellTiter-Glo ATP luminescence
Inconclusive results are not listed. Active and inactive are the calls of the source. No cut-off is given here; in the data, nearly all actives have AC50 up to about 26 µM.
Classes used: active, inactive

molecule	qualitative-label
CC(C)(C)OC(=O)CN(Cc1ccc(Cl)cc1)Cc1ccc([N+](=O)[O-])s1	active
Cn1cnc(-c2cc3nccc(Oc4ccc(NC(=S)NC(=O)Cc5ccccc5)cc4F)c3s2)c1	active
O=C1NC(=O)/C(=C/c2cccc(C(F)(F)F)c2)S1	inactive
Nc1nc2cc(-c3ccc4ncc(C(=O)N5CCOCC5)n4c3)ccc2o1	active
C=CCn1c(=O)c2cnc(Nc3ccc(N4CCN(C)CC4)cc3)nc2n1-c1cccc(C(C)(C)O)n1	active
Cc1cc(Oc2ccc3nc(COc4ccc(CC5SC(=O)NC5=O)cc4)n(C)c3c2)cc(C)c1N (centres undefined)	inactive
Cc1[nH]c(/C=C2\C(=O)Nc3ccc(F)cc32)c(C)c1C(=O)NCCN1CCCC1	active
CCN1CCN(Cc2ccc(NC(=O)Nc3ccc(Oc4cc(NC)ncn4)cc3)cc2C(F)(F)F)CC1	active
CN1CC[C@@H](c2c(O)cc(O)c3c(=O)cc(-c4ccccc4Cl)oc23)[C@@H](O)C1	active
